Reference for the values: the supplement of paper PMC9170038

# maps each entry to its apparent KD of MS2 coat protein
system: MS2 coat protein; test: apparent KD of MS2 coat protein; designed switch direction (-1 OFF switch, 1 ON switch): -1; higher = weaker reporter binding; conditions: input ligand: microRNA oligo, concentration not stated

{"columns": ["ENTRY_SEQUENCE", "UNITS_OF_MEASURE", "apparent KD of MS2 coat protein"],
 "data": [
  ["UGAGAACUGCGAGGAUAUACAUGAGGAUCACCCAUGUAAUAGUGUGAGGCUUUGCCUCACACAAUGUAGAAGGCGCAGUUCUCU [Mat - Exclusion NG 2 - Mod of JL - D7] (Eterna round: R96, puzzle: Exclusion NG 2)", "nM", 10.1],
  ["CCGCUCCGUGUAGGAUAUCGGCGUGCCCUGCGCCGAGAAGGACAUGAGGAUCACCCAUGUAUGUUAUUAUCACGCGUGGCGCAC [Design 75] (Eterna round: R96, puzzle: Exclusion NG 1)", "nM", 15],
  ["UUAAUUAGCAGGCAAGAUCAUUACAUGAGGAUCACCCAUGUCGAGGAUAUCAGCUCGAUUAGAGCUGAGAAGGCGACAGCCUGC [ExNG3/13-A1] (Eterna round: R96, puzzle: Exclusion NG 3)", "nM", 443],
  ["GCCGAAAGCGUAGGAUAUUGAAUAAAGCGGAAACGCAAGACAUGAGGAUCACCCAUGUGUCCGGACGAGAAGGGCGAAAGCGGC [AK ExNG2-V2-2] (Eterna round: R96, puzzle: Exclusion NG 2)", "nM", 24.1],
  ["AGCUGUGGCCGAGGAUAUCAAGAACCAUGGAAAACCAUGGAACCUUGACAUGAGGAUCACCCAUGUGAGAAGGCGGUCUCAGCA [Eli eng2 - 026] (Eterna round: R96, puzzle: Exclusion NG 2)", "nM", 11.1],
  ["UUUAGUUGGUAAGGAUAUCCUACAUUGUUCUGGCCCGGGCAUGCUACAUGAGGAUCACCCAUGUGGGAGAAGGUGCGUCAUUGC [Design 20] (Eterna round: R96, puzzle: Exclusion NG 2)", "nM", 42.5],
  ["CACCGUUACAGAGGAUAUCGUACAUGAGGAUCACCCAUGUAAUAAAUGAGAAUUUCGGAUGUAUGCGAGAAGGCUGGAAUCGGC [Ostracism 37 - Jieux - Exclusion NG 2] (Eterna round: R96, puzzle: Exclusion NG 2)", "nM", 20.7],
  ["AAUAAACAUGAGGAUCACCCAUGUGAGGAUAUACAGAUUAUAAGAAAAAAAAAAAAAAGUAGAAGGCACAUAUA [Default title] (Eterna round: R96, puzzle: Exclusion 1)", "nM", 29.9],
  ["UUGUACCGGUGAGGAUAUUUUUGAUAGAACUUUAUGAUAUACAUGAGGAUCACCCAUGUUACUUUAAAGAAGGCAUCGGAUUAU [JL JR Sub091 mod 2] (Eterna round: R96, puzzle: Exclusion NG 2)", "nM", 14.3],
  ["GUAACAACUAGAGGAUAUCAGCACGAUUAGUGCUGAGAAGGCUAGAGUUACAUGAGGAUCACCCAUGUCUAGAGAUCAUUAAUU [ENG1/13-A1] (Eterna round: R96, puzzle: Exclusion NG 1)", "nM", 53.2],
  ["AUAAAAUGCCAAGGAUAUCGGAAAGGAAGUGUACGAGAAGGUGGAGAUCCUAUACAUGAGGAUCACCCAUGUAUCAAGCUUGGG [PowerStrip EXNG 1.10] (Eterna round: R96, puzzle: Exclusion NG 1)", "nM", 510],
  ["CAGUACUGAGGAUAUACAUGAGGAUCACCCAUGUGUUCCAGCUGGGAAACUAGCAAAAGUAGAAGGCAGUACUG [salish99_ex3_r3_076] (Eterna round: R96, puzzle: Exclusion 3)", "nM", 21.4],
  ["CUGUUCCGUGUAGGAUAUGCAUAUUCCCAUUAUGCAGAAGGACAUGAGGAUCACCCAUGUAUGUUAUUAUCAUGUGUUACAUGC [Design 8] (Eterna round: R96, puzzle: Exclusion NG 1)", "nM", 31.3],
  ["ACAUGAGGAUCACCCAUGUUUUUUGGGUACUUUUGUUUCUGCAAGGAUAUGCAUUAUUUAUAUACGCAGAAGGUGCAUUACUUC [JR_ExcNG3_Sub061] (Eterna round: R96, puzzle: Exclusion NG 3)", "nM", 501],
  ["CCAUAUAGGAGAGGAUAUACGCACCACUAACUAGUAGAAGGCUCACAUGAGGAUCACCCAUGUGAUUUCUCAAUAUUAUACAUC [Prohibition 73 - Jieux - Exclusion NG 1] (Eterna round: R96, puzzle: Exclusion NG 1)", "nM", 25.6],
  ["UUUUGGCAUGUAGGAUAUGGGUCCGAUUAGGAUUUAGAAGGACAUGAGGAUCACCCAUGUGCAUUUAAUUGGUCAUUACCUUUU [EXclNG1-LROPPY11] (Eterna round: R96, puzzle: Exclusion NG 1)", "nM", 65.5],
  ["CUUGUUUAUGUAGGAUAUGCCUGGCGUGCCUUUGCAGAAGGACAUGAGGAUCACCCAUGUAUUGCGGUCUGCGUUCAGAUCGCA [salish99_ExNG1_r4_045] (Eterna round: R96, puzzle: Exclusion NG 1)", "nM", 23.2],
  ["AUUGUUUGAUACCUCUAAUACAUGAGGAUCACCCAUGUUAUCGAGGAUAUGUAGAAGAGAGGAGAACAGAAGGCGAAGUAAGAG [JR_ExcNG3_Sub095] (Eterna round: R96, puzzle: Exclusion NG 3)", "nM", 14.5]
]}

----------
test system: MS2 coat protein; experiment: apparent KD of MS2 coat protein; higher = weaker reporter binding; details: Eterna round: R107; input ligand: theophylline 20 uM
Threshold check on apparent KD of MS2 coat protein: at or above 90 nM gives MET, strictly below gives NOT MET.

{"columns": ["ENTRY_SEQUENCE", "QUALITATIVE_LABEL"],
 "data": [
  ["AGUACAUGAGGAUCACCCAUGUACCAUGAUACCAGACAUGAAAAUGUCCCUUGGCAGCGUGGGUGAGGCAUCCGAAAGGAUGCCC [#05 SameState-TheophyllineA]", "MET"],
  ["UGUAUGGACUGAAGGAGCGCCUCAAAACAUGAGGAUCACCCAUGUGGACAAUAAGUCCUUGGGCAGGUAGGUCGCAGUCCAUACU [ArgBX 6 #StaticStem #MS2Late]", "NOT MET"],
  ["AGUCUUAUAGGAAGGAGCGCAAUCAUAACAUGAGGAUCACCCAUGUCGAGGUGAGGGUCAUUGCAGGUAGGUCGCCUAACUAAGA [Same State - Arginine B (Freestyle 8)]", "MET"],
  ["UGUAUGUGAUCUGAUACCAGUCCAACUGGUAAAAUAUGAGGAUCACCCAUAUAAAAUUGGGACCCUUGGCAGCAGAUCGCAUACU", "MET"],
  ["ACAUGAGUGGAUAAUAAAUAAGAAGGCGAAGGAGCGUGAAGAAUCACAGGUAGGUCGCGCAAAAUACAUGAGGAUCACCCAUGUU [JR_Nu_ExcArginiA_Sub031]", "NOT MET"],
  ["UAUAUAUACUCGGCCGCCACUGAGAGAGUCAUGUAAACAUGAGGAUCACCCAUGUAAUAUAUAUACAGGACCGGGAGUAUAUGAA [4.B]", "NOT MET"],
  ["AAAGGUCGCAAUAAAUCUCCUACAUGUGAAGGAGCGCGCGAAAGCGCAGGUAGGUCGCACAUGAGGAUCACCCAUGUGAGCGACC [MAT - Exclusion Arginine A - Mod of Eli - D3]", "NOT MET"],
  ["ACCUGUACGAAAAGUGCAGGACAUGGAAAUCGAGGACCGGUACGGCCGCCACUCGUUGAAAACAAGUGGAUCACCCUUGUCCAUG [TrypAS 3 #AlternativeMS2 #Zipper #StaticStem]", "MET"],
  ["ACAUGAGGAUCACCCAUGUUAAGCAGGGUGCGAGGACCGGUACGGCCGCCACUCGGACAUUAUUACGAGUGAAUGGUAACGAUGU [#14 Exclusion Tryptophan A]", "NOT MET"],
  ["CUCAUCCACGCGGCCGCCACUAUAUUGUGGUGUGAAUGUGACGUAUUACAAGAGGAUCACCCUUGUAGGACCGGGCGUGGAUGAG [Tryp B Ex Mod1]", "NOT MET"]
]}

----------
tested on: MS2 coat protein; test: apparent KD of MS2 coat protein; designed switch direction (-1 OFF switch, 1 ON switch): -1; higher = weaker reporter binding; details: input ligand: none
OBSERVATION_TYPE: apparent KD of MS2 coat protein (nM)

{"columns": ["ENTRY_SEQUENCE", "OBSERVATION_TYPE", "UNITS_OF_MEASURE", "QUANTITATIVE_RESULT"],
 "data": [
  ["GUAGAGUCAGGAUAUACGGGAUCGAAAGAUCGGCGAUCCAUACAUGAGGAUCACCCAUGUAGAAGGGACUCUAC [Omei mod 10 to Eli's favorate candidate (ch.parushev)] (Eterna round: R97, puzzle: Exclusion 2)", "apparent KD of MS2 coat protein", "nM", 22.7],
  ["CAAAAUGCUCGAGGAUAUCCGAGGAGCAGAAAAGGAGAAGGCGAGGAUAAAGAACAUGAGGAUCACCCAUGUGAACCUCGUAAU [Lereores] (Eterna round: R96, puzzle: Exclusion NG 1)", "apparent KD of MS2 coat protein", "nM", 16.1],
  ["CAUUAGCAAGCGAGAUCCCACAUGAGGAUCACCCAUGUGCUCGUCUUAUAAGGUACUGUGACGAUAGUCACGGUACC [Mat - Sensor, turn-off var - Eli Mod - D41] (Eterna round: R97, puzzle: Sensor, turn-off variant 1)", "apparent KD of MS2 coat protein", "nM", 14.3],
  ["UCGCGCCUAGGAUAUAUAAGGACUUUCUAGUAUGUUGCGAAACAUGAGGAUCACCCAUGUAGAAGGAGGUAGUG [Eternabot (L2) Solution 89] (Eterna round: R97, puzzle: Exclusion 2)", "apparent KD of MS2 coat protein", "nM", 77.3]
]}
